Listed next: entries and their corresponding kon.
biological target: T1, biotin-labeled human PAD4 protein (human, UniProt Q9UM07 1-663, biotin on the Avi tag (biotin ligase BirA)); assay: SPR, Biacore T200, biotin-labeled human PAD4 captured on chip, IgG as analyte
T1 construct: also called Avi tag-human PAD4; biotin-labeled PAD4; not shown: Avi tag left on the N-terminal side after the GST tag was cleaved with PreScission Protease
T1 sequence (Q9UM07 whole entry): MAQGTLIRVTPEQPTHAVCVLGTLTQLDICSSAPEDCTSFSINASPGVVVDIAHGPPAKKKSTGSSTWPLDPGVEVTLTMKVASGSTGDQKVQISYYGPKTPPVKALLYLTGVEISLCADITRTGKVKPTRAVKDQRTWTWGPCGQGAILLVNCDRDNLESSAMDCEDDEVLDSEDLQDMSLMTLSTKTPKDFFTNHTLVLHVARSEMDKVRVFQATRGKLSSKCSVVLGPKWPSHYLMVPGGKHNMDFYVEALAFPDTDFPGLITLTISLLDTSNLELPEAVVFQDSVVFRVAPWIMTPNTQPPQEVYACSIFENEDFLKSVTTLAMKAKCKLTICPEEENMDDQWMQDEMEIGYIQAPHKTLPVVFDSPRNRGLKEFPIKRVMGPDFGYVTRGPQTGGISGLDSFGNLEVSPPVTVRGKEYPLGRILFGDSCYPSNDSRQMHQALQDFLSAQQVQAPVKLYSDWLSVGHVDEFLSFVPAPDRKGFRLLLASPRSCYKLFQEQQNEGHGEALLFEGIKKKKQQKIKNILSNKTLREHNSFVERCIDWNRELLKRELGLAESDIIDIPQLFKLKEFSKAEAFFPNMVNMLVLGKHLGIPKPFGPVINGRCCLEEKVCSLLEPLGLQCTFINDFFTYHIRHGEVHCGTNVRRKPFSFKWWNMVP
readout: kon (M⁻¹ s⁻¹)

* Lib1(6R)-1-39 (antibody, human IgG1, lambda, V domains shown, Tested as full-length antibody (human IgG1/human k) from Expi293) VH: EVQLLESGGGLVQPGGSLRLSCAASGFTFSTYAMGWVRQAPGKGLEFVAAIRNDGSWTGTSVNAKTRFTISRDNSKNTLYLQMNSLRAEDTAVYYCAKYTGSSGGSIGAWGQGTLVTVSS VL: SYELTQPPSVSVSPGQTARITCSGGNRNYYYGWYQQKPGQAPVTVIYANDKRPSGIPERFSGSNSGSTTTLTISGVQAEDEADYYCGTATTGKYVFGGGTKLTVLG | 5.9e+06
* Lib1(6R)-2-37 (antibody, human IgG1, lambda, V domains shown, Tested as full-length antibody (human IgG1/human k) from Expi293) VH: EVQLLESGGGLVQPGGSLRLSCAASGFTFSTYAMGWVRQAPGKGLEFVAAIRNDGSWTGIGYNQKSRFTISRDNSKNTLYLQMNSLRAEDTAVYYCGKYTGSSGGSIGAWGQGTLVTVSS VL: SYELTQPPSVSVSPGQTARITCSGGNRNYYYGWYQQKPGQAPVTVIYANDKRPSGIPERFSGSNSGSTTTLTISGVQAEDEADYYCGTALTGKYVFGGGTKLTVLG | 1.01e+07
* Lib2(5R)-2-25 (antibody, human IgG1, lambda, V domains shown, Tested as full-length antibody (human IgG1/human k) from Expi293) VH: EVQLLESGGGLVQPGGSLRLSCAASGFTFSTYAMGWVRQAPGKGLEFVAAIRNDGSWTGYPPPLKGRFTISRDNSKNTLYLQMNSLRAEDTAVYYCAKYTGSSGGSIGAWGQGTLVTVSS VL: SYELTQPPSVSVSPGQTARITCSGGNRNYYYGWYQQKPGQAPVTVIYANDKRPSGIPERFSGSNSGSTTTLTISGVQAEDEADYYCGTAYTGKYVFGGGTKLTVLG | 1.28e+07
